molecular target: rat Mdr1a (Rattus norvegicus); assay: Inhibition of 3H-digoxin or 3H-quinidine bidirectional transport in rMDR1 cells; format: cell-based; design: rat Mdr1a (NM_133401.1); expressed in transfected cells; host or cells: Abcb1KO-MDCKII (canine kidney, endogenous Abcb1 knocked out), transduced, single-cell clone; settings: Inhibition of digoxin transport IC50±SD, rMDR1, probe 3H-digoxin 1 µM, 120 min; IC50 from ER
Sequence (Q6PSM0 1-1272): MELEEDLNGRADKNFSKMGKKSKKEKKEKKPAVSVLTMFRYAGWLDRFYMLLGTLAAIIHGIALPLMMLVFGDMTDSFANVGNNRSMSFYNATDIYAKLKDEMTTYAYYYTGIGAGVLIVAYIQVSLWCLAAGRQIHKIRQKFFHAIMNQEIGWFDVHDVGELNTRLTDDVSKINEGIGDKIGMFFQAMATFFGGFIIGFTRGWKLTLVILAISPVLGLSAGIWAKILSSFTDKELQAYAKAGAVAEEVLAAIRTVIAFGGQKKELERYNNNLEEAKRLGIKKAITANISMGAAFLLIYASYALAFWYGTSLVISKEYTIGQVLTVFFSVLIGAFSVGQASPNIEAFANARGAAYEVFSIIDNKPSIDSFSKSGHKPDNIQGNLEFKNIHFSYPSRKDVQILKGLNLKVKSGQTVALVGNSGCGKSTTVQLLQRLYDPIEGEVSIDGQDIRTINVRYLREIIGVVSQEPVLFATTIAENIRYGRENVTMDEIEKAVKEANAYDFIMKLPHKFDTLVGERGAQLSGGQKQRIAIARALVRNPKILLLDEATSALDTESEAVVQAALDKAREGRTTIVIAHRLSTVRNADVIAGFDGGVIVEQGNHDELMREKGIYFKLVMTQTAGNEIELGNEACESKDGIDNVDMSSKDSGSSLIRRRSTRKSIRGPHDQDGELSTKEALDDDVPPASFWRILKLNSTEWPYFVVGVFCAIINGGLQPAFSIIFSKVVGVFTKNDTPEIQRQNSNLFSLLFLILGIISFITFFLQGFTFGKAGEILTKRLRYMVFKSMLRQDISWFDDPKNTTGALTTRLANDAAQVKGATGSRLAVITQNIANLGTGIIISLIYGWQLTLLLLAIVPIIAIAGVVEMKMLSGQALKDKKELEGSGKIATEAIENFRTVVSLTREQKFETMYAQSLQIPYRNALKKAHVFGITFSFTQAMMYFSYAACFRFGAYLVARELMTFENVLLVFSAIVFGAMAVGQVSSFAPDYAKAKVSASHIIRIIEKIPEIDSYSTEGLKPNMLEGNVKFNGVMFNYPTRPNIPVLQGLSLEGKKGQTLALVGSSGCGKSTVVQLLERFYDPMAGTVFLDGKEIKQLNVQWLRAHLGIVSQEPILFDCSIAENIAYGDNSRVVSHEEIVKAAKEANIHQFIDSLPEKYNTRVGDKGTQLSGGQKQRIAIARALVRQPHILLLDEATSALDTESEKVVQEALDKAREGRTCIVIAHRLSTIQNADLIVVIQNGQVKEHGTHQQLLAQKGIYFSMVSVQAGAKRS
metric.name: log10 of IC50 (log10 of the value in µM)
Heads up: the numbers are on a log10 scale; they represent IC50 in µM.

Worked set:
[
  {
    "compound": "CCOC(=O)C1=C(C)NC(C)=C(C(=O)OC)C1c1cccc([N+](=O)[O-])c1 (centres unmarked)",
    "metric.name": "log10 of IC50",
    "assay.result": 0.60
  },
  {
    "compound": "CN(C)C(=O)C(CCN1CCC(O)(c2ccc(Cl)cc2)CC1)(c1ccccc1)c1ccccc1 [Loperamide]",
    "metric.name": "log10 of IC50",
    "assay.result": 1.05
  },
  {
    "compound": "CCCc1nc2c(C)cc(-c3nc4ccccc4n3C)cc2n1Cc1ccc(-c2ccccc2C(=O)O)cc1",
    "metric.name": "log10 of IC50",
    "assay.result": 1.06
  },
  {
    "compound": "COc1cc2c(cc1OC)CN(CCc1ccc(NC(=O)c3cccc4c(=O)c5cccc(OC)c5[nH]c34)cc1)CC2",
    "metric.name": "log10 of IC50",
    "assay.result": -0.49
  },
  {
    "compound": "CCC(C)n1ncn(-c2ccc(N3CCN(c4ccc(OCC5COC(Cn6cncn6)(c6ccc(Cl)cc6Cl)O5)cc4)CC3)cc2)c1=O (centres unmarked)",
    "metric.name": "log10 of IC50",
    "assay.result": 0.64
  },
  {
    "compound": "C=C[C@H]1C[N@@]2CC[C@H]1C[C@@H]2[C@@H](O)c1ccnc2ccc(OC)cc12",
    "metric.name": "log10 of IC50",
    "assay.result": 0.47
  },
  {
    "compound": "COc1ccccc1OCCNCC(O)COc1cccc2[nH]c3ccccc3c12 (centres unmarked)",
    "metric.name": "log10 of IC50",
    "assay.result": 0.63
  },
  {
    "compound": "COCC(=O)O[C@]1(CCN(C)CCCc2nc3ccccc3[nH]2)CCc2cc(F)ccc2[C@@H]1C(C)C",
    "metric.name": "log10 of IC50",
    "assay.result": 0.87
  },
  {
    "compound": "O[C@@H](COc1cccc2ncccc12)CN1CCN([C@@H]2c3ccccc3[C@@H]3[C@H](c4ccccc42)C3(F)F)CC1",
    "metric.name": "log10 of IC50",
    "assay.result": -0.22
  },
  {
    "compound": "Cc1ccc(-c2ncc(Cl)cc2-c2ccc(S(C)(=O)=O)cc2)cn1",
    "metric.name": "log10 of IC50",
    "assay.result": 1.74
  }
]

Please respond with reported log10 of IC50 (system rat Mdr1a (Rattus norvegicus)) for Cc1ccccc1C(=O)Nc1ccc(C(=O)N2CCCC(O)c3cc(Cl)ccc32)c(C)c1 (centres unmarked) .
0.94

GET log10 of IC50 where system = rat Mdr1a (Rattus norvegicus) and item = COC(=O)C1=C(C)NC(C)=C(C(=O)OC(C)C)C1c1cccc2nonc12 (centres unmarked)
1.18

Recall the reported log10 of IC50 of CC(C)(C)NC(=O)[C@@H]1C[C@@H]2CCCC[C@@H]2CN1C[C@@H](O)[C@H](Cc1ccccc1)NC(=O)[C@H](CC(N)=O)NC(=O)c1ccc2ccccc2n1 on rat Mdr1a (Rattus norvegicus) and write it down.
1.40
